// reported EfA (acceptor FRET efficiency) per item
Target: T1, PBP2 (wild type), fused to mKO or to mCherry (E. coli, UniProt P0AD65 1-633)
T1 construct: PBP2, peptidoglycan transpeptidase of the E. coli elongasome, wild type; mKO-PBP2 in all others; also called mKO-PBP2^WT; mKO-PBP2; source: E. coli LMC500, expressed from plasmid (15 uM IPTG), in fixed cells; not shown: mKO (donor construct, pWA004) or mCherry (acceptor construct), N-terminal, kept
T1 sequence (looked up): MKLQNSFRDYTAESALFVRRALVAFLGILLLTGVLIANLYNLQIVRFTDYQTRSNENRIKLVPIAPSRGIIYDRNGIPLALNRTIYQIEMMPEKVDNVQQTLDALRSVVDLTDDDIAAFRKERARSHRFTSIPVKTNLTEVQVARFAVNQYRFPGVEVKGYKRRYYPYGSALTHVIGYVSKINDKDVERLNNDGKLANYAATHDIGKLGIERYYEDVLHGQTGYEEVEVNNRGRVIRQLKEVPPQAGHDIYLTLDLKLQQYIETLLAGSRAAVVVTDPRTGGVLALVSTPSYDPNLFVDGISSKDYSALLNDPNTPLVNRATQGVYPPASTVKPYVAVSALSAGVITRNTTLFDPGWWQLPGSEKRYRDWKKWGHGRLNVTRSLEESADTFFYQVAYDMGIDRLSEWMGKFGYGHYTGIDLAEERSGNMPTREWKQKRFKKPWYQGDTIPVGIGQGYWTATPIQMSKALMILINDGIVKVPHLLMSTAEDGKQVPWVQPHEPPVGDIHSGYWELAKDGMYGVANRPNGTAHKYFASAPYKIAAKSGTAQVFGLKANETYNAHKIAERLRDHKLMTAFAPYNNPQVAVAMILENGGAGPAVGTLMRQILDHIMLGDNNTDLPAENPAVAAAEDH
Experiment: FRET or BRET; two-plasmid spectral FRET in E. coli LMC500 cells; mCherry fusion as acceptor, mKO fusion as donor; Gb4 medium, steady state at 28 C, 15 uM IPTG for two mass doublings, FAGA-fixed; acceptor FRET efficiency (EfA) by spectral unmixing
Conditions: partners not purified

# binder, EfA (acceptor FRET efficiency)
rows = [
    ("RodA (wild type), fused to mCherry or to mKO (enzyme, E. coli, UniProt P0ABG7 1-370, looked up, RodA, peptidoglycan glycosyltransferase of the E. coli elongasome; wild-type rodA gene; mCh-RodA in all others; also called mCh-RodA; mKO-RodA; source: E. coli LMC500, expressed from plasmid (15 uM IPTG), in fixed cells; not shown: mCherry (acceptor construct, pSAV047-RodA) or mKO (donor construct, pXL56), N-terminal, kept) MTDNPNKKTFWDKVHLDPTMLLILLALLVYSALVIWSASGQDIGMMERKIGQIAMGLVIMVVMAQIPPRVYEGWAPYLYIICIILLVAVDAFGAISKGAQRWLDLGIVRFQPSEIAKIAVPLMVARFINRDVCPPSLKNTGIALVLIFMPTLLVAAQPDLGTSILVALSGLFVLFLSGLSWRLIGVAVVLVAAFIPILWFFLMHDYQRQRVMMLLDPESDPLGAGYHIIQSKIAIGSGGLRGKGWLHGTQSQLEFLPERHTDFIFAVLAEELGLVGILILLALYILLIMRGLWIAARAQTTFGRVMAGGLMLILFVYVFVNIGMVSGILPVVGVPLPLVSYGGSALIVLMAGFGIVMSIHTHRKMLSKSV", "12.7%"),
    ("mCh-RodA^R109A (enzyme, E. coli, UniProt P0ABG7 1-370, looked up) MTDNPNKKTFWDKVHLDPTMLLILLALLVYSALVIWSASGQDIGMMERKIGQIAMGLVIMVVMAQIPPRVYEGWAPYLYIICIILLVAVDAFGAISKGAQRWLDLGIVAFQPSEIAKIAVPLMVARFINRDVCPPSLKNTGIALVLIFMPTLLVAAQPDLGTSILVALSGLFVLFLSGLSWRLIGVAVVLVAAFIPILWFFLMHDYQRQRVMMLLDPESDPLGAGYHIIQSKIAIGSGGLRGKGWLHGTQSQLEFLPERHTDFIFAVLAEELGLVGILILLALYILLIMRGLWIAARAQTTFGRVMAGGLMLILFVYVFVNIGMVSGILPVVGVPLPLVSYGGSALIVLMAGFGIVMSIHTHRKMLSKSV", "12.5%"),
    ("mCh-RodA^Q207R (enzyme, E. coli, UniProt P0ABG7 1-370, looked up) MTDNPNKKTFWDKVHLDPTMLLILLALLVYSALVIWSASGQDIGMMERKIGQIAMGLVIMVVMAQIPPRVYEGWAPYLYIICIILLVAVDAFGAISKGAQRWLDLGIVRFQPSEIAKIAVPLMVARFINRDVCPPSLKNTGIALVLIFMPTLLVAAQPDLGTSILVALSGLFVLFLSGLSWRLIGVAVVLVAAFIPILWFFLMHDYRRQRVMMLLDPESDPLGAGYHIIQSKIAIGSGGLRGKGWLHGTQSQLEFLPERHTDFIFAVLAEELGLVGILILLALYILLIMRGLWIAARAQTTFGRVMAGGLMLILFVYVFVNIGMVSGILPVVGVPLPLVSYGGSALIVLMAGFGIVMSIHTHRKMLSKSV", "12.7%"),
]
